Overview of recorded cytotoxicity at 48 h, 25 µM for various compounds
test_details: Cytotoxicity against mouse RAW264.7 cells assessed as reduction in cell viability at 25 uM measured after 48 hrs by MTT assay
Type: cell-based
conditions_used: read-out: INH

{"compound": "Cc1ccc(NC(=O)C2CC(C(=O)Nc3ccc(C)cc3C)N2NC(=O)c2ccncc2)c(C)c1 (stereo not given)", "cytotoxicity at 48 h, 25 µM / %": 19.3}
{"compound": "O=C(NN1C(C(=O)Nc2ccccn2)CC1C(=O)Nc1ccccn1)c1ccncc1 (stereo not given)", "cytotoxicity at 48 h, 25 µM / %": 7.68}
{"compound": "O=C(NN1C(C(=O)Nc2ccccc2)CC1C(=O)Nc1ccccc1)c1ccncc1 (stereo not given)", "cytotoxicity at 48 h, 25 µM / %": 19.8}
{"compound": "O=C(NN1C(C(=O)Nc2ccc(Br)cc2)CC1C(=O)Nc1ccc(Br)cc1)c1ccncc1 (stereo not given)", "cytotoxicity at 48 h, 25 µM / %": 19.7}
{"compound": "O=C(NN1C(C(=O)NCCc2ccccc2)CC1C(=O)NCCc1ccccc1)c1ccncc1 (stereo not given)", "cytotoxicity at 48 h, 25 µM / %": 42.3}
